Target: Tyrosine-protein phosphatase non-receptor type 5 (Homo sapiens)
Sequence (P54829 whole entry): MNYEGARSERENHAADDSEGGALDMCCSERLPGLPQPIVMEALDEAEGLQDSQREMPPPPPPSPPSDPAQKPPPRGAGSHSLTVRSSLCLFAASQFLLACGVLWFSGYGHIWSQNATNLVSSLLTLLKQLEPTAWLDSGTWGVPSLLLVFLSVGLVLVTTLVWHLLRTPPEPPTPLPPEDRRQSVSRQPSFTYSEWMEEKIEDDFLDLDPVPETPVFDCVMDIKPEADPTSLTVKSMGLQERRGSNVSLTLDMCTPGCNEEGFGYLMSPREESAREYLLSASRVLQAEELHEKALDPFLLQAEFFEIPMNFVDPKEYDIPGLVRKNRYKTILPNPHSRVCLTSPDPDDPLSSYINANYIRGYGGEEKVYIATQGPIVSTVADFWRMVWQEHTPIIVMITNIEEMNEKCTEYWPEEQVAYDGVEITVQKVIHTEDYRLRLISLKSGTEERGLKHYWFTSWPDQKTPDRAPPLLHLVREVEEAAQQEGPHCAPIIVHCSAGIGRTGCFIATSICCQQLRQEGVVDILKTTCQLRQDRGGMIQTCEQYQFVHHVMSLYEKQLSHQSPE
Assay: STEP phosphatase inhibitor potency, dose response, orthogonal assay for STEP inhibitor project, biochemical, colorimetric absorbance (AID 624207)
readout: IC50

Example entries and their recorded answers appear below.
{"compound_structure": "CC(=O)c1ccc(S(=O)(=O)Nc2cccc(-n3cnnn3)c2)cc1", "observed_measurement": "> 80 µM"}
{"compound_structure": "COc1ccc(-n2nc(C(=O)NCC(=O)Nc3ccccn3)c3ccccc3c2=O)cc1Cl", "observed_measurement": "> 80 µM"}
{"compound_structure": "CCN1CCN(C(=S)c2ccc(O)cc2)CC1", "observed_measurement": "33.8 µM"}

Answer with reported IC50 of NC(=O)c1cc2ccccc2o/c1=N\NC(=O)c1ccccc1O
13.7 µM

Answer with reported IC50 of Cc1nnc2sc(-c3ccc(NC(=O)c4ccc(-c5ccc(Cl)cc5Cl)o4)cc3)nn12
> 80 µM

Answer with reported IC50 of CC(=O)N1CCOc2ccc(S(=O)(=O)NCc3ccc(F)cc3)cc21
> 80 µM
